Target: PI3K (Homo sapiens)
Construct: PI3 Kinase α IC50; other: PI3 Kinase α; other: PI3 Kinase α isoform, fluorescence polarization
Sequence (P42336 whole entry, canonical isoform): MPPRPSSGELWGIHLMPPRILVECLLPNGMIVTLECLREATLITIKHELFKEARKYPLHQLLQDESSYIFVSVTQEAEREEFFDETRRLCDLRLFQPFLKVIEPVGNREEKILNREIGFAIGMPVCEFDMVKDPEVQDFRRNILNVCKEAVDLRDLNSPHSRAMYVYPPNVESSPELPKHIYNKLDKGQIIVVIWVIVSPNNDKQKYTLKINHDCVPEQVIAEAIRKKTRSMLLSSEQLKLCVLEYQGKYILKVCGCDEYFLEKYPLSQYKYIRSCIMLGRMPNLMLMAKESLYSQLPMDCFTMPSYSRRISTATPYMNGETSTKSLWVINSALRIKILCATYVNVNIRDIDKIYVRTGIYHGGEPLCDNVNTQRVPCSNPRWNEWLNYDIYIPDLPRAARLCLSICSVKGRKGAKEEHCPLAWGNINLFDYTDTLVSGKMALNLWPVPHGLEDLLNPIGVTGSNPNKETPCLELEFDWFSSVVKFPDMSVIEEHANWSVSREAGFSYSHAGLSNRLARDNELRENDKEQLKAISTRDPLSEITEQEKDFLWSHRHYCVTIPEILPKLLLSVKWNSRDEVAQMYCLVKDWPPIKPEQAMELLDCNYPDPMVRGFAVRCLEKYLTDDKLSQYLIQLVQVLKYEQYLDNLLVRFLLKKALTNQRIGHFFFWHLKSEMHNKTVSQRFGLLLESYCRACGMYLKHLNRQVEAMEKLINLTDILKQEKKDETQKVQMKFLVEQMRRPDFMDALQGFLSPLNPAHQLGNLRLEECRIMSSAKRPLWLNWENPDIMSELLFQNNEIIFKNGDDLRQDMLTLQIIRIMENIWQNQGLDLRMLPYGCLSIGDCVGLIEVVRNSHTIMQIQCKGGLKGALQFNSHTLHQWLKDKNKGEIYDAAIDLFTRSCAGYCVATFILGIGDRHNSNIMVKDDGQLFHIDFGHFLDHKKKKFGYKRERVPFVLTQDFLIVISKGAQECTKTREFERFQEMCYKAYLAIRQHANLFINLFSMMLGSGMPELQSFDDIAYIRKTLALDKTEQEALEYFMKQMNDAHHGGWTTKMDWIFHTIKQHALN
Assay: Fluorescence polarization assay for PI3K
Format: biochemical
Settings: PI3 Kinase α isoform, fluorescence polarization; read-out: PI3 Kinase α IC50
pIC50: −log10 of the molar value.
quantity_name: pIC50

In [3]: df
Out[3]:
                                   compound  recorded_number
0  COC1CCC(n2ncc3c(N4CC5CCC(C4)O5)nc(-c4ccc(NC(=O)Nc5ccc(C(N)=O)cc5)cc4)nc32)CC1 (stereo not drawn)             7.06
1  O=C(Nc1ccc(-c2nc(N3C[C@@H]4C[C@H]3CO4)c3cnn(CC(F)(F)F)c3n2)cc1)NC1CC1             5.39

[a] COC1CCC(n2ncc3c(N4CC5CCC(C4)O5)nc(-c4ccc(NC(=O)Nc5ccc(N6CCNCC6)cc5)cc4)nc32)CC1 (stereo not drawn)
[b] CN1CCN(c2ccc(NC(=O)Nc3ccc(-c4nc(N5CC6CCC(C5)O6)c5cnn(C6CCC7(CCCO7)CC6)c5n4)cc3)cc2)CC1 (single isomer, unassigned)
[Q] Returns: the label, a or b , whose recorded pIC50 is the lower number. Answer by quoting the chosen item's label.
[A] b

[1] O=C(Nc1ccc(-c2nc(N3CC4CCC(C3)O4)c3cnn(C4CCC5(CC4)OCCO5)c3n2)cc1)Nc1cccnc1
[2] COCC(COC)n1ncc2c(N3CC4CCC(C3)O4)nc(-c3ccc(NC(=O)Nc4cccnc4)cc3)nc21
[Q] Response body: label of entry with the larger pIC50; valid values 1 , 2 . Answer by quoting the chosen item's label.
[A] 1

====

Target: PI3K (Homo sapiens)
Construct: PI3 Kinase α IC50; other: PI3 Kinase α; other: PI3 Kinase α isoform, fluorescence polarization
Assay: Fluorescence polarization assay for PI3K
Format: biochemical
Details: PI3 Kinase α isoform, fluorescence polarization; read-out: PI3 Kinase α IC50
pIC50: −log10 of the molar value.
quantity_name: pIC50

>>> df
                                   compound  recorded_number
0  COC1CCC(n2ncc3c(N4CC5CCC(C4)O5)nc(-c4ccc(NC(=O)Nc5ccc(C(=O)NN6CCCC6)cc5)cc4)nc32)CC1 (stereo not shown)             6.39
1  CN1CCN(Cc2cc3nc(-c4ccc(NC(=O)Nc5ccncc5)cc4)nc(N4CC5CCC(C4)O5)c3s2)CC1             7.07
2  O=C(Nc1ccncc1)Nc1ccc(-c2nc(N3CC4CCC(C3)O4)c3cnn(C4CCC5(CCCO5)CC4)c3n2)cc1 (single isomer, unassigned)             6.45

[A] CNC(=O)Nc1ccc(-c2nc(N3CC4CCC(C3)O4)c3cnn(C(COC)COC)c3n2)cc1
[B] COCC(COC)n1ncc2c(N3CC4CCC(C3)O4)nc(-c3ccc(NC(=O)OCCO)cc3)nc21
[C] COC1CCC(n2ncc3c(N4CC5CCC(C4)O5)nc(-c4ccc(NC(=O)Nc5ccc(N6CCN(C)CC6)cc5)cc4)nc32)CC1 (stereo not shown)
[D] O=C(Nc1ccc(-c2nc(N3C[C@H]4C[C@@H]3CO4)c3cnn(CC(F)(F)F)c3n2)cc1)Nc1cccnc1
[E] CNC(=O)Nc1ccc(-c2nc(N3CC4CCC(C3)O4)c3cnn([C@H]4CC[C@H](OC)CC4)c3n2)cc1 (relative stereo)
[Q] Order each entry by recorded pIC50, climbing from the minimum. Give the labels in the order specified.
[A] B, D, E, A, C
